B1: ZNF263 (parent)
chain: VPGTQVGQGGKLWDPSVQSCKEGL

variants of: B1; assay: protein stability index of a GFP-peptide fusion (GPS, HEK-293T) (PSI 1-6); higher = more stable; conditions: c terminus: a fixed tail appended;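 note: lentivirally expressed fusions sorted by FACS into six bins by GFP to DsRed ratio, PSI derived from sequencing read proportions per bin multiplied by bin number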
ENDPOINT_LABEL: protein stability index
Give the figure by itself; no unit, no explanation.

Known results for variants:
Query string: What does the record list as protein stability index for VPGTQVGQGGKLWDPSVQSCKESL ?
Result string: 3.98

Query string: What does the record list as protein stability index for VPGTQVGQGGKLWDPSVQFCKEGL ?
Result string: 3.98

Query string: What does the record list as protein stability index for VPGTQVGQGGKLWDPSVQSCKEKL ?
Result string: 4.35

Query string: What does the record list as protein stability index for VPGTQVGQGGKLWDPSVQSCKEGM ?
Result string: 4.09

Query string: What does the record list as protein stability index for VPGTQVGQGGKYWDPSVQSCKEGL ?
Result string: 3.79

Query string: What does the record list as protein stability index for VPGTQVGQFGKLWDPSVQSCKEGL ?
Result string: 3.87

Query string: What does the record list as protein stability index for VPGTQVGQGGKGWDPSVQSCKEGL ?
Result string: 3.97

Query string: What does the record list as protein stability index for VPGTQVAQGGKLWDPSVQSCKEGL ?
Result string: 4.02

---
Query string: What does the record list as protein stability index for VPGTQVGQGGKLWDPSVQKCKEGL ?
Result string: 4.25

Query string: What does the record list as protein stability index for VPGTQVGQGGKLWWPSVQSCKEGL ?
Result string: 3.19

Query string: What does the record list as protein stability index for VPGTQVEQGGKLWDPSVQSCKEGL ?
Result string: 4.41

Query string: What does the record list as protein stability index for VPGTQVGQGGFLWDPSVQSCKEGL ?
Result string: 3.9

Query string: What does the record list as protein stability index for VPGTQVGQGGKLWDPSVQSCKEGA ?
Result string: 4.69

Query string: What does the record list as protein stability index for VPGTQVGQGGKLKDPSVQSCKEGL ?
Result string: 4.61

Query string: What does the record list as protein stability index for VPGTWVGQGGKLWDPSVQSCKEGL ?
Result string: 4.15
